- target-or-test-system: GPR6 (Homo sapiens, UniProt P46095)
- Construct: expressed in transfected cells; host or cells: CHO cells
- Sequence (P46095 whole entry): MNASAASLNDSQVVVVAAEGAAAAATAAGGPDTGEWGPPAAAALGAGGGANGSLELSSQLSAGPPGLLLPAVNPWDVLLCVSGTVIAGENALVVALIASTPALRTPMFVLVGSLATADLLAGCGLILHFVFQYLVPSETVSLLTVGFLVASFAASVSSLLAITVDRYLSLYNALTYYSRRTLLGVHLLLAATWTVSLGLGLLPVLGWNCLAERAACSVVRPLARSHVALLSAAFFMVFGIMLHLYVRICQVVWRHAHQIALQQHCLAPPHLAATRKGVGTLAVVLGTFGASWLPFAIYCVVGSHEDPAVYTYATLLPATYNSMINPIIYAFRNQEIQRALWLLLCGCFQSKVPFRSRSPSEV
- test-name: GPR6 antagonist functional cAMP assay (LANCE Ultra cAMP TR-FRET, CHO cells stably expressing GPR6)
- Type: cell-based
- reported-conditions: CHO cells stably expressing GPR6, cAMP assay (Example 24)
pIC50: −log10 of the molar value.
reported-endpoint: pIC50

Solved cases (4 shown):
- compound: "CC(=O)N1CCc2nc(N3CCC(Oc4ccc(F)cc4F)CC3)c(-c3cccc4nccn34)nc2C1"
  target-or-test-system: "GPR6 (Homo sapiens, UniProt P46095)"
  pIC50: "4.52 to 6.00"
- compound: "CNC(=O)CN1CCc2nc(N3CCC(Oc4ccc(F)cc4F)CC3)c(-c3cn[nH]c3)nc2C1"
  target-or-test-system: "GPR6 (Homo sapiens, UniProt P46095)"
  pIC50: "4.52 to 6.00"
- compound: "CC(C)(O)C(O)c1cc2nc(N3CCC(Oc4ccc(F)cc4F)CC3)c(-c3cnn(C4CC4)c3)nc2cn1 (stereo not shown)"
  target-or-test-system: "GPR6 (Homo sapiens, UniProt P46095)"
  pIC50: "6.00 to 7.00"
- compound: "CCc1nccc(-c2nc3c(nc2N2CCC(Oc4ccc(F)cc4F)CC2)CCN(C(C)=O)C3)n1"
  target-or-test-system: "GPR6 (Homo sapiens, UniProt P46095)"
  pIC50: "4.52 to 6.00"

Recall the recorded pIC50 for "CNC(=O)c1cc2nc(N3CCC(Oc4ccc(F)cc4F)CC3)c(-c3cncc(OC)n3)nc2cn1" with GPR6 (Homo sapiens, UniProt P46095) and state it.
4.52 to 6.00

Recall the recorded pIC50 for "N#CN1CCc2nc(N3CCC(Oc4ccc(F)cc4F)CC3)c(-c3cn[nH]c3)nc2C1" with GPR6 (Homo sapiens, UniProt P46095) and state it.
> 7.00

Recall the recorded pIC50 for "CC(=O)N1CCc2nc(N3CCC(Oc4ccc(F)cc4F)CC3)c(-c3ccccn3)nc2C1" with GPR6 (Homo sapiens, UniProt P46095) and state it.
4.52 to 6.00

Recall the recorded pIC50 for "Cn1cc(-c2nc3cc(Cl)ncc3nc2N2CCN(Cc3ccc(F)cc3F)CC2)cn1" with GPR6 (Homo sapiens, UniProt P46095) and state it.
6.00 to 7.00

Recall the recorded pIC50 for "COc1cncc(-c2nc3cnccc3nc2N2CC3(CC(Oc4ccc(F)cc4F)C3)C2)n1" with GPR6 (Homo sapiens, UniProt P46095) and state it.
4.52 to 6.00

Recall the recorded pIC50 for "Cn1cc(-c2nc3cnc(CO)cc3nc2N2CCN(Cc3ccc(F)cc3F)CC2)cn1" with GPR6 (Homo sapiens, UniProt P46095) and state it.
6.00 to 7.00

Recall the recorded pIC50 for "CC(=O)N1CCc2nc(N3CCC(Oc4ccc(F)cc4F)CC3)c(-c3cnn(CC4CC4)c3)nc2C1" with GPR6 (Homo sapiens, UniProt P46095) and state it.
6.00 to 7.00

Recall the recorded pIC50 for CC(=O)N1CCc2nc(N3CCC(Oc4ccc(F)cc4F)CC3)c(C3CCCC(=O)N3)nc2C1 (stereo not shown) with GPR6 (Homo sapiens, UniProt P46095) and state it.
≤ 4.52

Recall the recorded pIC50 for "Cn1cc(-c2nc3c(nc2N2CCC(Oc4ccc(F)cc4F)CC2)CCN(S(C)(=O)=O)C3)cn1" with GPR6 (Homo sapiens, UniProt P46095) and state it.
> 7.00

Recall the recorded pIC50 for "CC(=O)N1CCc2nc(N3CCC(Oc4ccc(F)cc4F)CC3)c(-c3cnn(C4COC4)c3)nc2C1" with GPR6 (Homo sapiens, UniProt P46095) and state it.
6.00 to 7.00

Recall the recorded pIC50 for "Cn1cc(-c2nc3cnc(C(=O)C(C)(C)O)cc3nc2N2CCC(Oc3ccc(F)cc3F)CC2)cn1" with GPR6 (Homo sapiens, UniProt P46095) and state it.
6.00 to 7.00

Recall the recorded pIC50 for O=C1CC(N2CCc3nc(N4CCC(Oc5ccc(F)cc5F)CC4)c(-c4cn[nH]c4)nc3C2)CN1 (stereo not shown) with GPR6 (Homo sapiens, UniProt P46095) and state it.
4.52 to 6.00

* * *

- target-or-test-system: GPR3 (Homo sapiens)
- Construct: expressed in transfected cells; host or cells: CHO cells
- Sequence (P46089 whole entry, species assumed): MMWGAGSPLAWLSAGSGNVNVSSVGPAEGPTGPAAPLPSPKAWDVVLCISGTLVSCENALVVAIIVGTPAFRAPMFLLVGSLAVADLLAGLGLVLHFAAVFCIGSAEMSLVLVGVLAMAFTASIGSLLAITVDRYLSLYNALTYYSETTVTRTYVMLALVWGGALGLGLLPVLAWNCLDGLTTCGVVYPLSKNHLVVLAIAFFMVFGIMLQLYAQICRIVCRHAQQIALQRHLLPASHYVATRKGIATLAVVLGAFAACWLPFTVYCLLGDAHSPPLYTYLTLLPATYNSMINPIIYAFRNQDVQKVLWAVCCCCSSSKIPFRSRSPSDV
- test-name: GPR3 antagonist functional cAMP assay (LANCE Ultra cAMP TR-FRET, CHO cells stably expressing GPR3)
- Assay type: cell-based
- reported-conditions: CHO cells stably expressing GPR3, cAMP assay
reported-endpoint: IC50

Can you look up the measured IC50 of CC(=O)N1CCc2nc(N3CCN(Cc4cscn4)CC3)c(-c3cnn(C)c3)nc2C1 [Compound 516] for me?
≥ 30000 nM

Can you look up the measured IC50 of CC(=O)N1CCc2nc(N3CCN(Cc4ccccc4Cl)CC3)c(-c3cnn(C)c3)nc2C1 [Compound 507] for me?
1000 to 30000 nM

Can you look up the measured IC50 of CC(C)(O)[C@H](O)c1cc2nc(N3CCC(Oc4ccc(F)cc4F)CC3)c(-c3cnn(C4CC4)c3)nc2cn1 (single isomer, unassigned) [Compound 572] for me?
1000 to 30000 nM

Can you look up the measured IC50 of CC(C)(O)C(O)c1cc2nc(-c3cnn(CF)c3)c(N3CCC(Oc4ccc(F)cc4F)CC3)nc2cn1 (single isomer, unassigned) [Compound 592] for me?
100 to 1000 nM

Can you look up the measured IC50 of CC(=O)N1CCc2nc(N3CCN(C(=O)c4ccc(Cl)c(C)c4)CC3)c(-c3cnn(C)c3)nc2C1 [Compound 539] for me?
1000 to 30000 nM

Can you look up the measured IC50 of CC(C)(O)[C@@H](O)c1cc2nc(N3CCC(Oc4ccc(F)cc4F)CC3)c(-c3cnn(C(F)F)c3)nc2cn1 (single isomer, unassigned) [Compound 555] for me?
1000 to 30000 nM

Can you look up the measured IC50 of CC(=O)N1CCc2nc(N3CCC(Oc4ccccc4C#N)CC3)c(-c3cnn(C)c3)nc2C1 [Compound 499] for me?
≥ 30000 nM

Can you look up the measured IC50 of CC(C)(O)[C@H](O)c1cc2nc(N3CCC(Oc4ccc(F)cc4F)CC3)c(-c3cnn(C(F)F)c3)nc2cn1 (single isomer, unassigned) [Compound 554] for me?
1000 to 30000 nM

Can you look up the measured IC50 of CC(=O)N1CCc2nc(N3CCN(Cc4ccsc4)CC3)c(-c3cnn(C)c3)nc2C1 [Compound 514] for me?
1000 to 30000 nM

Can you look up the measured IC50 of CC(C)(O)C(O)c1cc2nc(-c3cnn(C(F)F)c3)c(N3CCN(Cc4ccc(F)cc4F)CC3)nc2cn1 (single isomer, unassigned) [Compound 586] for me?
100 to 1000 nM

Can you look up the measured IC50 of Cn1cc(-c2nc3cc(C(O)C(C)(C)O)ncc3nc2N2CCC(Oc3ccc(F)cc3F)CC2)cn1 (single isomer, unassigned) [Compound 562] for me?
100 to 1000 nM

Can you look up the measured IC50 of CCn1cc(-c2nc3c(nc2N2CCN(C(=O)c4ccc(Cl)cc4)CC2)CCN(C(C)=O)C3)cn1 [Compound 549] for me?
1000 to 30000 nM

Can you look up the measured IC50 of CC(C)(O)[C@@H](O)c1cc2nc(N3CCC(Oc4ccc(F)cc4F)CC3)c(-c3cnn(C4CC4)c3)nc2cn1 (single isomer, unassigned) [Compound 573] for me?
1000 to 30000 nM

* * *

# Lookup of reported pIC50 keyed by entry
- target-or-test-system: GPR6 (Homo sapiens, UniProt P46095)
- Construct: expressed in transfected cells; host or cells: CHO cells
- test-name: GPR6 antagonist functional cAMP assay (LANCE Ultra cAMP TR-FRET, CHO cells stably expressing GPR6)
- Assay type: cell-based
- reported-conditions: CHO cells stably expressing GPR6, cAMP assay (Example 24)
pIC50: −log10 of the molar value.

Solved cases (3 shown):
- compound: "CC(=O)N1CCc2nc(N3CCC(Oc4ccc(Cl)cc4F)CC3)c(-c3cnn(C)c3)nc2C1"
  pIC50: "6.00 to 7.00"
- compound: "CC(=O)N1CCc2nc(N3CCC(Oc4cccc(F)c4F)CC3)c(-c3cnn(C)c3)nc2C1"
  pIC50: "4.52 to 6.00"
- compound: "CCn1cc(-c2nc3c(nc2N2CCC(Oc4ccc(F)cc4F)CC2)CCN(S(N)(=O)=O)C3)cn1"
  pIC50: "6.00 to 7.00"

Now for a further compound.
Recall the recorded pIC50 for "Cn1cc(-c2nc3cnc(C#N)cc3nc2N2CCN(Cc3ccc(F)cc3F)CC2)cn1" with GPR6 (Homo sapiens, UniProt P46095) and state it.
6.00 to 7.00
